# Test system: NCI-H841 complex tumor spheroid viability
# Method description: Anticancer human tumor NCI-H841 cell line growth inhibition
# Reported conditions: second compound 0.003 µM; first compound 0.3 µM; active compounds read low
# Description: Multicellular complex tumor spheroid response to DNA repair inhibitors in combination with DNA-damaging drugs This study explores the anticancer activities of DNA-damaging drugs and inhibitors of DNA damage repair, both as single agents and in combinations. […] Twenty-six patient-derived or established malignant cell lines were evaluated representing sarcoma, melanoma, small cell lung cancer (SCLC), non-small cell lung cancer (NSCLC), as well as bladder, ovarian and pancreatic cancers. […]
Readout label: viability, T/C

stdin: Which viability, T/C is reported for this compound? Cn1ncnc1[C@H]1c2n[nH]c(=O)c3cc(F)cc(c23)N[C@@H]1c1ccc(F)cc1 + COc1cc2c(cc1O)CCNC21CSC2c3c(OC(C)=O)c(C)c4c(c3C(COC1=O)N1C(O)C3Cc5cc(C)c(OC)c(O)c5C(C21)N3C)OCO4
stdout: 0.1%

stdin: Which viability, T/C is reported for this compound? CNCc1ccc(-c2cc(-c3nc(-c4ccc(S(=O)(=O)C(C)C)cc4)cnc3N)on2)cc1 + COc1cc2c(cc1O)CCNC21CSC2c3c(OC(C)=O)c(C)c4c(c3C(COC1=O)N1C(O)C3Cc5cc(C)c(OC)c(O)c5C(C21)N3C)OCO4
stdout: 0.1%

stdin: Which viability, T/C is reported for this compound? O=C(c1cc(Cc2n[nH]c(=O)c3ccccc23)ccc1F)N1CCN(C(=O)C2CC2)CC1 + CC[C@@]1(O)C(=O)OCc2c1cc1n(c2=O)Cc2cc3c(CN(C)C)c(O)ccc3nc2-1
stdout: 75.1%

----------
# System: NCI-H841 complex tumor spheroid viability
# Method description: Anticancer human tumor NCI-H841 cell line growth inhibition;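 also: spheroids exposed to compounds for 7 days before readout; 100% = DMSO vehicle control wells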
# Reported conditions: second compound 0.03 µM; first compound 10 µM; active compounds read low
Readout label: viability, T/C (%)
Give the quantity in %, number only.

stdin: Which viability, T/C is reported for this compound? CC1COCCN1c1cc(-c2ccnn2C)c2ccnc(-c3ccn[nH]3)c2n1 (stereo unspecified) + CC[C@@]1(O)C(=O)OCc2c1cc1n(c2=O)Cc2cc3c(CN(C)C)c(O)ccc3nc2-1
stdout: 1.32

stdin: Which viability, T/C is reported for this compound? [2H]c1nc(C)nc([2H])c1-c1cc(NC[C@@H](C)c2cccc3c(C(=O)NC)ccnc23)ncn1 + CC[C@@]1(O)C(=O)OCc2c1cc1n(c2=O)Cc2cc3c(CN(C)C)c(O)ccc3nc2-1
stdout: 1.47

stdin: Which viability, T/C is reported for this compound? Cc1cc(C)c(CNC(=O)c2cc(-c3ccc(CN4CCOCC4)cc3)cc3c2cnn3C2CCCC2)c(=O)[nH]1 + CC[C@@]1(O)C(=O)OCc2c1cc1n(c2=O)Cc2cc3c(CN(C)C)c(O)ccc3nc2-1
stdout: 1.49

stdin: Which viability, T/C is reported for this compound? COc1cc(C)[nH]c(=O)c1CN1CCc2c(Cl)cc(C(OC)C3COC3)c(Cl)c2C1=O (stereo unspecified) + CC[C@@]1(O)C(=O)OCc2c1cc1n(c2=O)Cc2cc3c(CN(C)C)c(O)ccc3nc2-1
stdout: 2.37

stdin: Which viability, T/C is reported for this compound? CC(C)n1c(=O)n(C)c2cnc3cc(F)c(-c4ccc(OCCCN5CCCCC5)nc4)cc3c21 + CC[C@@]1(O)C(=O)OCc2c1cc1n(c2=O)Cc2cc3c(CN(C)C)c(O)ccc3nc2-1
stdout: 2.19

stdin: Which viability, T/C is reported for this compound? COc1ccc([C@@H](O)c2cc(-c3ncnc4cc(N5CCOCC5)ccc34)c(F)cc2Cl)nn1 + CC[C@@]1(O)C(=O)OCc2c1cc1n(c2=O)Cc2cc3c(CN(C)C)c(O)ccc3nc2-1
stdout: 1.21

----------
# Test system: NCI-H841 complex tumor spheroid viability
# Method description: Anticancer human tumor NCI-H841 cell line growth inhibition;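 also: spheroids exposed to compounds for 7 days before readout; 100% = DMSO vehicle control wells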
# Reported conditions: second compound 10 µM; first compound 0.1 µM; active compounds read low
Readout label: viability, T/C (%)
Give the quantity in %, number only.

stdin: Which viability, T/C is reported for this compound? COc1cc(C)[nH]c(=O)c1CN1CCc2c(Cl)cc(C(OC)C3COC3)c(Cl)c2C1=O (stereo unspecified) + Cn1nnc2c(C(N)=O)ncn2c1=O
stdout: 67

stdin: Which viability, T/C is reported for this compound? CC(C)n1c(=O)n(C)c2cnc3cc(F)c(-c4ccc(OCCCN5CCCCC5)nc4)cc3c21 + Cn1nnc2c(C(N)=O)ncn2c1=O
stdout: 94.1

stdin: Which viability, T/C is reported for this compound? Cc1cc(C)c(CNC(=O)c2cc(-c3ccc(CN4CCOCC4)cc3)cc3c2cnn3C2CCCC2)c(=O)[nH]1 + Cn1nnc2c(C(N)=O)ncn2c1=O
stdout: 108

stdin: Which viability, T/C is reported for this compound? COc1ccc([C@@H](O)c2cc(-c3ncnc4cc(N5CCOCC5)ccc34)c(F)cc2Cl)nn1 + Cn1nnc2c(C(N)=O)ncn2c1=O
stdout: 105

stdin: Which viability, T/C is reported for this compound? [2H]c1nc(C)nc([2H])c1-c1cc(NC[C@@H](C)c2cccc3c(C(=O)NC)ccnc23)ncn1 + Cn1nnc2c(C(N)=O)ncn2c1=O
stdout: 99.8

stdin: Which viability, T/C is reported for this compound? CC1COCCN1c1cc(-c2ccnn2C)c2ccnc(-c3ccn[nH]3)c2n1 (stereo unspecified) + Cn1nnc2c(C(N)=O)ncn2c1=O
stdout: 12.6

----------
# Tested on: NCI-H841 complex tumor spheroid viability
# Method description: Anticancer human tumor NCI-H841 cell line growth inhibition; active = viability on the fitted dose curve at most 10% of control; inactive = the rest;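 also: spheroids exposed to compounds for 7 days before readout; 100% = DMSO vehicle control wells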
# Reported conditions: second compound 0.0003 µM; first compound 0.3 µM
Assign a class; possible classes are 1.0 for active, 0.0 for inactive

stdin: Could you please tell me the result logged for Cc1sc2c(c1C)C(c1ccc(Cl)cc1)=NC(CC(=O)Nc1ccc(O)cc1)c1nnc(C)n1-2 (centres undefined) + COc1cc2c(cc1O)CCNC21CSC2c3c(OC(C)=O)c(C)c4c(c3C(COC1=O)N1C(O)C3Cc5cc(C)c(OC)c(O)c5C(C21)N3C)OCO4 in this assay?
stdout: 1.0

stdin: Could you please tell me the result logged for Cn1ncnc1[C@H]1c2n[nH]c(=O)c3cc(F)cc(c23)N[C@@H]1c1ccc(F)cc1 + COc1cc2c(cc1O)CCNC21CSC2c3c(OC(C)=O)c(C)c4c(c3C(COC1=O)N1C(O)C3Cc5cc(C)c(OC)c(O)c5C(C21)N3C)OCO4 in this assay?
stdout: 1.0

stdin: Could you please tell me the result logged for O=C(c1cc(Cc2n[nH]c(=O)c3ccccc23)ccc1F)N1CCN(C(=O)C2CC2)CC1 + COc1cc2c(cc1O)CCNC21CSC2c3c(OC(C)=O)c(C)c4c(c3C(COC1=O)N1C(O)C3Cc5cc(C)c(OC)c(O)c5C(C21)N3C)OCO4 in this assay?
stdout: 0.0

stdin: Could you please tell me the result logged for CNCc1ccc(-c2cc(-c3nc(-c4ccc(S(=O)(=O)C(C)C)cc4)cnc3N)on2)cc1 + COc1cc2c(cc1O)CCNC21CSC2c3c(OC(C)=O)c(C)c4c(c3C(COC1=O)N1C(O)C3Cc5cc(C)c(OC)c(O)c5C(C21)N3C)OCO4 in this assay?
stdout: 1.0

----------
Give viability, T/C for every item shown.
# Test system: NCI-H841 complex tumor spheroid viability
# Method description: Anticancer human tumor NCI-H841 cell line growth inhibition;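 also: spheroids exposed to compounds for 7 days before readout; 100% = DMSO vehicle control wells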
# Reported conditions: second compound 0.03 µM; first compound 0.1 µM; active compounds read low

stdin: Which viability, T/C is reported for this compound? CC1COCCN1c1cc(-c2ccnn2C)c2ccnc(-c3ccn[nH]3)c2n1 (stereo unspecified) + CC[C@@]1(O)C(=O)OCc2c1cc1n(c2=O)Cc2cc3c(CN(C)C)c(O)ccc3nc2-1
stdout: 0.57%

stdin: Which viability, T/C is reported for this compound? [2H]c1nc(C)nc([2H])c1-c1cc(NC[C@@H](C)c2cccc3c(C(=O)NC)ccnc23)ncn1 + CC[C@@]1(O)C(=O)OCc2c1cc1n(c2=O)Cc2cc3c(CN(C)C)c(O)ccc3nc2-1
stdout: 2.14%

stdin: Which viability, T/C is reported for this compound? CC(C)n1c(=O)n(C)c2cnc3cc(F)c(-c4ccc(OCCCN5CCCCC5)nc4)cc3c21 + CC[C@@]1(O)C(=O)OCc2c1cc1n(c2=O)Cc2cc3c(CN(C)C)c(O)ccc3nc2-1
stdout: 1.19%

stdin: Which viability, T/C is reported for this compound? Cc1cc(C)c(CNC(=O)c2cc(-c3ccc(CN4CCOCC4)cc3)cc3c2cnn3C2CCCC2)c(=O)[nH]1 + CC[C@@]1(O)C(=O)OCc2c1cc1n(c2=O)Cc2cc3c(CN(C)C)c(O)ccc3nc2-1
stdout: 2.59%

stdin: Which viability, T/C is reported for this compound? COc1cc(C)[nH]c(=O)c1CN1CCc2c(Cl)cc(C(OC)C3COC3)c(Cl)c2C1=O (stereo unspecified) + CC[C@@]1(O)C(=O)OCc2c1cc1n(c2=O)Cc2cc3c(CN(C)C)c(O)ccc3nc2-1
stdout: 1.86%

stdin: Which viability, T/C is reported for this compound? COc1ccc([C@@H](O)c2cc(-c3ncnc4cc(N5CCOCC5)ccc34)c(F)cc2Cl)nn1 + CC[C@@]1(O)C(=O)OCc2c1cc1n(c2=O)Cc2cc3c(CN(C)C)c(O)ccc3nc2-1
stdout: 2.47%
